- System: RXF-393 renal
- Method: Cancer cell proliferation, RXF-393
- Format: cell-based, human
- Experimental setup: Homo sapiens, RXF 393, 72 h, RXF393, Exp 2, 72 hours; read-out: IC50
Measured attribute: pIC50
Answer as the number alone; pIC50 is minus log10 of concentration in mol/L.

RXF-393 renal / pIC50 / COc1cc2c(cc1OC)C(c1sc3ccccc3c1Cl)=NCC2 : value? 5.09
